This section presents molecules with their documented T/C values.
Test system: L1210 leukemia ip in BDF1 mice, survival T/C
Experiment: NCI In Vivo Anticancer Drug Screen. Data for tumor model L1210 Leukemia (intraperitoneal) in B6D2F1 (BDF1) mice
Conditions: endpoint: mean survival time; dose: 100.0 mg/kg/injection; schedule: Q04DX003 (ip); vehicle: Klucel (hydroxypropylcellulose) (HPC); higher = longer survival
Inconclusive results and toxic doses are left out.

Illustrative cases are given below, each with its answer.
> print(dat)
                                   molecule   reported.result
1                 CCCCCCCCCCCCCCCCOc1ccccn1   92 % of control
2  Cc1ccc(NC(=O)Oc2ccc(Cl)cc2C)c([N+](=O)[O-])c1  102 % of control
3  Cc1ccc(C(=O)Nc2ccc(OCCCc3c(N)nc(N)nc3N)cc2)cc1S(=O)(=O)F  103 % of control
4              OCC(F)(F)C(F)(F)C(F)(F)C(F)F  102 % of control
5                     CCCCOC(=O)CC(=O)OCCCC   88 % of control

Form field, T/C with L1210 leukemia ip in BDF1 mice, survival T/C, item `c1ccc2c(C3OCC4(CCC4)CO3)cccc2c1` : 91 % of control

CC12CCC(C)(O1)C1C(=O)OC(=O)C12 (centres undefined) tested on L1210 leukemia ip in BDF1 mice, survival T/C gave T/C: 96 % of control

Tested system L1210 leukemia ip in BDF1 mice, survival T/C; T/C recorded for `CC(=O)Nc1ccc(OC(=O)Nc2c(C)cccc2C)cc1` was 100 % of control

The reported T/C value, L1210 leukemia ip in BDF1 mice, survival T/C, for `O=C(O)c1ccccc1C(=O)Nc1ccc([N+](=O)[O-])cc1Cl` reads 97 % of control

Simply: CCOC(=O)C(C#N)(CC)C1=CCCCC1 (centres undefined) , L1210 leukemia ip in BDF1 mice, survival T/C, T/C = 97 % of control

Assay L1210 leukemia ip in BDF1 mice, survival T/C, sample O=P(NC12CC3CC(CC(C3)C1)C2)(c1ccccc1)N1CC1 (centres undefined) , T/C read: 86 % of control

T/C value, target or system L1210 leukemia ip in BDF1 mice, survival T/C, for `O=S(=O)(Cc1ccc(Cl)cc1Cl)Cc1ccc(Cl)cc1Cl` : 89 % of control

Reading of T/C for `O=C(Nc1ccccc1)c1ccccc1` with L1210 leukemia ip in BDF1 mice, survival T/C: 97 % of control

With L1210 leukemia ip in BDF1 mice, survival T/C as the test system, O=C(NC(CSC(=O)c1ccccc1)C(=O)O)OCc1ccccc1 (centres undefined) showed T/C of 101 % of control

T/C of `CCOC(=O)N(C)c1ccccc1` , assay on L1210 leukemia ip in BDF1 mice, survival T/C, is 97 % of control
